test: Stability in mouse plasma assessed as half-life at 1 uM measured upto 1440 min by UHPLC-MS/MS analysis; type: ADME, cell-free
parameter measured: half-life at 1 µM (h)
Your answer should be a plain number; it is taken to be in h.

Here is how some molecules turned out for half-life at 1 µM.
CC(C)[C@H]1C(=O)NC[C@@H](NC(=O)c2nc3ccccc3cc2O)C(=O)N2CCCC[C@H]2C(=O)NCC(=O)N(C)CC(=O)N(C)[C@@H](C(C)C)C(=O)OC[C@@H](NC(=O)c2nc3ccccc3cc2O)C(=O)N2CCCC[C@H]2C(=O)NCC(=O)N(C)CC(=O)N1C | 12
CC(C)[C@H]1C(=O)OC[C@@H](NC(=O)c2nc3ccccc3cc2O)C(=O)N2CCCC[C@H]2C(=O)NCC(=O)N(C)CC(=O)N(C)[C@@H](C(C)C)C(=O)OC[C@@H](NC(=O)c2nc3ccccc3cc2O)C(=O)N2CCCC[C@H]2C(=O)NCC(=O)N(C)CC(=O)N1C | 5.5

# next molecule below
Please give the measured half-life at 1 µM for this molecule: CCOC(=O)[C@H](CCc1ccccc1)N[C@@H](C)C(=O)N1CCC[C@H]1C(=O)O [ENALAPRIL]
2.83
